This collection of values is drawn from patent US4748240A.

# Lookup of reported log10 ED50 keyed by entry
Test system: apomorphine-induced stereotyped behavior and climbing
Assay: Antagonism of apomorphine-induced stereotyped behavior and climbing
Format: in vivo, mouse (CF-1, Charles River)
Details: Mus musculus, po; apomorphine 1 mg/kg s.c.; read-out: Apomorphine Antagonism, Climbing ED50
Please be aware that the numbers have been log10-transformed from ED50 in mg/kg.

CHEMICAL STRING	MEASURED PARAMETER	VAL
O=C1C2CCC(C2)C(=O)N1CCCCN1CCN(c2cccc(C(F)(F)F)c2)CC1	log10 ED50	0.02
CC1(C)C2CCC1C(=O)N(CCCCN1CCN(c3ncccn3)CC1)C2=O	log10 ED50	-0.70
O=C1C2CCC(C2)C(=O)N1CCCCN1CCN(c2cncc(Cl)n2)CC1	log10 ED50	1.20

Param item = O=C1C2CCCC(O2)C(=O)N1CCCCN1CCN(c2ncccn2)CC1 ; retrieve measured log10 ED50.
-0.62

Param item = O=C1C2CCCC(O2)C(=O)N1CCCCN1CCN(c2cccc(C(F)(F)F)c2)CC1 ; retrieve measured log10 ED50.
0.96

Param item = O=C1C2CCC(O2)C(=O)N1CCCCN1CCN(c2cncc(Cl)n2)CC1 ; retrieve measured log10 ED50.
1.71

Param item = O=C1C2CCC(C2)C(=O)N1CCCCN1CCN(c2ccc3ccccc3n2)CC1 ; retrieve measured log10 ED50.
1.61

Param item = CC1(C)C2CCC1C(=O)N(CCCCN1CCN(c3cncc(Cl)n3)CC1)C2=O ; retrieve measured log10 ED50.
1.63

Param item = COc1ccccc1N1CCN(CCCCN2C(=O)C3CCC(C3)C2=O)CC1 ; retrieve measured log10 ED50.
-0.08

Param item = O=C1C2CCC(S2)C(=O)N1CCCCN1CCN(c2ncccn2)CC1 ; retrieve measured log10 ED50.
1.73

Param item = O=C1C2CCC(C2)C(=O)N1CCCCN1CCN(c2cccc(Cl)c2)CC1 ; retrieve measured log10 ED50.
-0.10

Param item = O=C1C2CCC(C2)C(=O)N1CCCN1CCN(c2cccc(C(F)(F)F)c2)CC1 ; retrieve measured log10 ED50.
1.47

Param item = O=C1C2CCCC(C2)C(=O)N1CCCCN1CCN(c2cnccn2)CC1 ; retrieve measured log10 ED50.
0.96

Param item = O=C1C2CC=CCC(C2)C(=O)N1CCCCN1CCN(c2ncccn2)CC1 ; retrieve measured log10 ED50.
1.05

---

Target protein (sequence): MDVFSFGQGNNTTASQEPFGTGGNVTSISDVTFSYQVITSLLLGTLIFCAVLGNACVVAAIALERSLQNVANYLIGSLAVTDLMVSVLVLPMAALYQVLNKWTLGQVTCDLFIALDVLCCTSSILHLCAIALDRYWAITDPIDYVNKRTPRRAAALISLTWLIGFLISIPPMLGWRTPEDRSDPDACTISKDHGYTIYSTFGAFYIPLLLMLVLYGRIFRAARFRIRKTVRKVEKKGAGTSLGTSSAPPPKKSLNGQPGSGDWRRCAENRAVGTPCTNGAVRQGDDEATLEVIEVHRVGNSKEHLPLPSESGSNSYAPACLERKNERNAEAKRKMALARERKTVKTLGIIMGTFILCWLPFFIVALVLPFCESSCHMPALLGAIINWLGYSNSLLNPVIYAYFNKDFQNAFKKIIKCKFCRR
MEASURED PARAMETER: pKi
The quantity pKi is defined as the negative base-10 logarithm of the molar concentration.

COMPOUND	pKi
O=C1C2CCCC(S2)C(=O)N1CCCCN1CCN(c2cncc(Cl)n2)CC1	7.45

Param item = O=C1C2CCCC(O2)C(=O)N1CCCCN1CCN(c2cccc(C(F)(F)F)c2)CC1 ; retrieve measured pKi.
7.82

Param item = O=C1C2CC=CCC(C2)C(=O)N1CCCCN1CCN(c2ncccn2)CC1 ; retrieve measured pKi.
7.82

Param item = O=C1C2CCCC(C(=O)N1CCCCN1CCN(c3ncccn3)CC1)[S+]2[O-] (stereo not drawn) ; retrieve measured pKi.
7.05

Param item = O=C1C2CCC(C2)C(=O)N1CCCCN1CCN(c2cccc(Cl)c2)CC1 ; retrieve measured pKi.
8.41

Param item = O=C1C2CCC(C2)C(=O)N1CCCCN1CCN(c2ccc3ccccc3n2)CC1 ; retrieve measured pKi.
7.22
